Catalogue of IC50 readings, one per entry.
System: BT-474 breast cancer cell line
Experiment: In vitro antiproliferation assay, General Procedure 1 (WST-8)
Format: cell-based
Settings: Homo sapiens, BT-474, read-out: IC50, BT-474, conjugates DAR 8, comparators DAR not given
// units = nM; emit number, no label

molecule | scale_unit | IC50
CNc1ccccc1NC(=O)NCc1ccc2c(c1)CN(C1CCC(=O)NC1=O)C2=O (centres unmarked) | nM | 2.9

Give BT-474 breast cancer cell line IC50 for CNCCOCCc1ccc(NC(=O)NCc2ccc3c(c2)CN(C2CCC(=O)NC2=O)C3=O)cc1Cl (centres unmarked) [Compound P1]
13

---

Test system: SKOV3 cell line
Assay: In vitro antiproliferation assay, General Procedure 2 (CCK-8)
Assay type: cell-based
Details: Homo sapiens, SK-OV-3; Ovarian
assay_readout: IC50 (nM)
// units = nM; emit number, no label

Below, each entry is followed by its recorded IC50 result.
compound | measured_on | scale_unit | number
CNCCOCCc1ccc(NC(=O)NCc2ccc3c(c2)CN(C2CCC(=O)NC2=O)C3=O)cc1Cl (stereo not drawn) [Compound P1] | SKOV3 cell line | nM | 114
CNc1ccccc1NC(=O)NCc1ccc2c(c1)CN(C1CCC(=O)NC1=O)C2=O (stereo not drawn) | SKOV3 cell line | nM | 138

Now let's try a different one.
Which measured IC50 value corresponds to O=C1CCC(N2Cc3cc(CNC(=O)Nc4ccc(CCO)c(Cl)c4)ccc3C2=O)C(=O)N1 (stereo not drawn) ?
99.7
